# ASSAY OVERVIEW: Annexin V-FITC/PI cell death analysis by flow cytometry, NCI-H28
# Type: cell-based, human
# TEST SETTINGS: human, NCI-H28 cells; NCI-H28, 10 μg/mL, 48 h; read-out: viable cells
OUTCOME MEASURE: viability at 48 h, 10 μg/mL (%)
Report the value in % with no unit label.

Request: Could you share which viability at 48 h, 10 μg/mL value was measured for O=C(O)CCCCCCOc1cccc(-c2c3nc(c(-c4cccc(OCCCCCCC(=O)O)c4)c4ccc([nH]4)c(-c4cccc(OCCCCCCC(=O)O)c4)c4nc(c(-c5cccc(OCCCCCCC(=O)O)c5)c5ccc2[nH]5)C=C4)C=C3)c1 ?
Result: 75
